# TEST SUMMARY: Solubility in PBS
# Type: physicochemical
Reported Solubility values for the following compounds.
Unit µM implied. Number only.

Please review the entries below; each comes with its answer.
[[record]]
compound = "CC(=O)N1CCC[C@]12CC=CCCCC1(CCCC=CCCCOC(=O)N3CC[C@@](C(=O)N[C@@H](Cc4ccccc4Cl)C(=O)N[C@@H](Cc4csc5ccccc45)C(=O)N[C@@H](CO)C(N)=O)(C3)NC(=O)[C@H](Cc3ccccc3)NC(=O)[C@H](Cc3ccccc3)NC(=O)[C@H](C)NC(=O)[C@H](C)NC(=O)[C@H](Cc3cccc(C(=O)O)c3)NC(=O)[C@H](CC(=O)O)NC1=O)NC(=O)[C@H](CC(C)(C)C)NC(=O)[C@H](CC(=O)O)NC2=O (stereo partly drawn)"
observed_value = 10

[[record]]
compound = "CC[C@H](C)[C@@H]1NC(=O)[C@H](CC(=O)O)NC(=O)[C@]2(CC=CCCCC3(CCCC=CCCCCCC[C@@](C)(C(=O)N[C@@H](Cc4ccccc4)C(=O)N[C@@H](Cc4csc5ccccc45)C(=O)N[C@@H](Cc4c[nH]c5ccccc45)C(N)=O)NC(=O)[C@H](CCC(N)=O)NC(=O)[C@H](Cc4ccccc4)NC(=O)[C@H](C)NC(=O)[C@H](C)NC(=O)[C@H](CCC(=O)O)NC(=O)[C@H](CC(=O)O)NC3=O)NC1=O)CCCN2C(C)=O (stereo partly drawn) [I-643]"
observed_value = 28


Memo: CC(=O)N1CCC[C@]12CC=CCCCC1(CCCC=CCCCOC(=O)N3CC[C@@](C(=O)N[C@@H](Cc4ccccc4Cl)C(=O)N[C@@H](Cc4csc5ccccc45)C(=O)N[C@@H](C(N)=O)[C@H](C)O)(C3)NC(=O)[C@H](CC(N)=O)NC(=O)[C@H](Cc3ccccc3)NC(=O)[C@H](C)NC(=O)[C@H](C)NC(=O)[C@H](CC(=O)O)NC(=O)[C@H](CC(=O)O)NC1=O)NC(=O)[C@H](CC(C)(C)C)NC(=O)[C@H](CC(=O)O)NC2=O (stereo partly drawn) , reported Solubility: 10
